The origin of these recorded values is PubChem BioAssay (EPA / NIEHS).

# Read-out: Glutamate-cysteine ligase catalytic (GCLC), GCLC (gene 2729)
# test details: LTEA_HepaRG_GCLC: Life Technologies and Expression Analysis (LTEA) Assay for Glutamate-cysteine ligase catalytic (GCLC) using HepaRG (AID 2283498)
# run parameters: mRNA level, 48 h; actives raise or lower the signal
Active and inactive are the calls of the source. Rule for the calls: active = hit-call score of the fitted dose curve at least 0.9, where 1 is the maximum; inactive = score below 0.9.
Hi there, use one of these labels in your reply, thanks! active, inactive

QUERY: // param item: CCCCC(CC)COC(=O)c1ccccc1C(=O)O (stereo unspecified) ; yields the recorded call
RESULT: inactive

QUERY: And what about the compound CCCN(CCC)C(=O)SCC ?
RESULT: inactive

QUERY: And what about the compound N[C@@H](Cc1cc(I)c(Oc2ccc(O)c(I)c2)c(I)c1)C(=O)O ?
RESULT: active

QUERY: And what about the compound CCN(CC)C(=O)c1cccc(C)c1 ?
RESULT: inactive

QUERY: And what about the compound CCCCOCCOCCOCc1cc2c(cc1CCC)OCO2 ?
RESULT: inactive

QUERY: And what about the compound CCOC(=O)c1ccc(O)cc1 ?
RESULT: inactive

QUERY: And what about the compound CCCCOC(=O)[C@@H](C)Oc1ccc(Oc2ccc(C(F)(F)F)cn2)cc1 ?
RESULT: inactive

QUERY: And what about the compound CN(C)C(=O)Nc1ccc(Cl)c(Cl)c1 ?
RESULT: active

QUERY: And what about the compound Oc1ccc(C(c2ccc(O)cc2)C(Cl)(Cl)Cl)cc1 ?
RESULT: active

QUERY: And what about the compound CCNc1nc(N)nc(Cl)n1 ?
RESULT: inactive

QUERY: And what about the compound O=C(c1ccccc1)C1CCCCC1 ?
RESULT: inactive

QUERY: And what about the compound CCC(C)OC(=O)N1CCCCC1CCO (stereo unspecified) ?
RESULT: inactive

QUERY: And what about the compound CC(C)(c1ccc(O)cc1)c1ccc(O)cc1 ?
RESULT: inactive

QUERY: And what about the compound CCCCCOC(=O)COc1cc(N2C(=O)C3=C(CCCC3)C2=O)c(F)cc1Cl ?
RESULT: inactive

QUERY: And what about the compound c1ccc2[nH]c(-c3cscn3)nc2c1 ?
RESULT: active

QUERY: And what about the compound OB(O)O ?
RESULT: inactive

QUERY: And what about the compound C#CCOC(=O)[C@@H](C)Oc1ccc(Oc2ncc(Cl)cc2F)cc1 ?
RESULT: inactive

QUERY: And what about the compound CC(C)CCCCCCc1ccc(O)cc1 ?
RESULT: inactive

QUERY: And what about the compound COc1c(Cl)ccc(Cl)c1C(=O)O ?
RESULT: inactive

QUERY: And what about the compound CC(=O)S[C@@H]1CC2=CC(=O)CC[C@]2(C)[C@H]2CC[C@@]3(C)[C@@H](CC[C@@]34CCC(=O)O4)[C@H]12 ?
RESULT: active

QUERY: And what about the compound CCCN(CCC)c1c([N+](=O)[O-])cc(C(F)(F)F)c(N)c1[N+](=O)[O-] ?
RESULT: inactive

QUERY: And what about the compound c1ccc(Nc2ccccc2)cc1 ?
RESULT: inactive

QUERY: And what about the compound CCN(Cc1c(F)cccc1Cl)c1c([N+](=O)[O-])cc(C(F)(F)F)cc1[N+](=O)[O-] ?
RESULT: active

QUERY: And what about the compound CC(C)(C)[C@@H](O)[C@@H](Cc1ccc(Cl)cc1)n1cncn1 ?
RESULT: inactive

QUERY: And what about the compound C=CCOC(Cn1ccnc1)c1ccc(Cl)cc1Cl (stereo unspecified) ?
RESULT: active

QUERY: And what about the compound CCCCOC(=O)C(C)Oc1ccc(Oc2ccc(C(F)(F)F)cn2)cc1 (stereo unspecified) ?
RESULT: inactive
